tested on: Mus musculus; assay: Anticonvulsant activity in Swiss mouse assessed as protection against seizures at 300 mg/kg, ip administered 30 mins before test by maximal electroshock seizure test; type: functional; settings: route intraperitoneal
Form field: Activity (one value per entry).
Unit % implied. Number only.

{"Chem smiles": "CCCCn1c(-c2cccc(Cl)c2Cl)n[nH]c1=S", "Recorded number": 12.5}
{"Chem smiles": "CCCCCCCCCCn1c(Cc2cccc(Cl)c2)n[nH]c1=S", "Recorded number": 0}
{"Chem smiles": "CCn1c(Cc2cccc(Cl)c2)n[nH]c1=S", "Recorded number": 100}
{"Chem smiles": "CCCCCCCn1c(Cc2cccc(Cl)c2)n[nH]c1=S", "Recorded number": 100}
{"Chem smiles": "CCCCCn1c(Cc2cccc(Cl)c2)n[nH]c1=S", "Recorded number": 100}

Now look at this entry.
Value lookup for Activity; key = CCCCn1c(Cc2cccc(Cl)c2)n[nH]c1=S
100

* * *

experiment: Toxicity in Swiss mouse assessed as effect on motor performance administered intraperitoneally 120 mins before test by Chimney test; type: organism-based; conditions: in vivo, ip
Lab note: cut-off is 400 mg/kg. Strictly less in TD50 at 2 h is True. Exactly 400 mg/kg or more is False.

Solved cases below.
{"Chem smiles": "CCCCCCCn1c(Cc2cccc(Cl)c2)n[nH]c1=S", "Classification": "False"}
{"Chem smiles": "CCCCCCn1c(Cc2cccc(Cl)c2)n[nH]c1=S", "Classification": "False"}
{"Chem smiles": "CCCCn1c(Cc2cccc(Cl)c2)n[nH]c1=S", "Classification": "True"}
{"Chem smiles": "CCCCCn1c(-c2cccc(Cl)c2Cl)n[nH]c1=S", "Classification": "True"}
{"Chem smiles": "CCn1c(Cc2cccc(Cl)c2)n[nH]c1=S", "Classification": "True"}
{"Chem smiles": "CCCCCCCCCn1c(Cc2cccc(Cl)c2)n[nH]c1=S", "Classification": "False"}
{"Chem smiles": "CCCCCCCCn1c(Cc2cccc(Cl)c2)n[nH]c1=S", "Classification": "False"}

Would you kindly look at the next entry?
Please determine if CCCCCn1c(Cc2cccc(Cl)c2)n[nH]c1=S is below 400 mg/kg in terms of TD50 at 2 h.
True

* * *

system: Mus musculus; test: Anticonvulsant activity in Swiss mouse assessed as protection against seizures administered intraperitoneally 120 mins before test by maximal electroshock seizure test; type: functional; details: ip
Endpoint: ED50 (mg/kg)
Unit mg/kg implied. Number only.

{"Chem smiles": "CCCCCCCCCn1c(Cc2cccc(Cl)c2)n[nH]c1=S", "Recorded number": 200}
{"Chem smiles": "CCCCCCCCn1c(Cc2cccc(Cl)c2)n[nH]c1=S", "Recorded number": 224}

Value lookup for ED50; key = CCCCCn1c(Cc2cccc(Cl)c2)n[nH]c1=S
84.2

What about this compound? CCn1c(Cc2cccc(Cl)c2)n[nH]c1=S
88.3

What about this compound? CCCCCn1c(-c2cccc(Cl)c2Cl)n[nH]c1=S
348

What about this compound? CCCCn1c(Cc2cccc(Cl)c2)n[nH]c1=S
102

What about this compound? CCCCCCCn1c(Cc2cccc(Cl)c2)n[nH]c1=S
89.6

What about this compound? CCCCCCn1c(Cc2cccc(Cl)c2)n[nH]c1=S
97.9
